Tested on: BDF1 mice, P388 leukemia ip, median survival T/C
METHOD SUMMARY: NCI In Vivo Anticancer Drug Screen. Data for tumor model P388 Leukemia (intraperitoneal) in B6D2F1 (BDF1) mice
CONDITION DESCRIPTION: endpoint: median survival time; dose: 2.0 mg/kg/injection; schedule: Q01DX009 (ip); vehicle: saline
Toxic doses and inconclusive results are not listed. Rule for the calls: active = survival T/C of 150% or more; inactive = T/C below 125% in these data.
// classify into Y (active), N (inactive)

Solved entries:
Identify the outcome logged in this assay for the compound shown: c1ccc2c(c1)ccc1c[n+]3ccccc3cc12
N

// outcome(item) with item = N[C@H](C(=O)O)[C@@H]1CC(Cl)=NO1
Y

For COC1=C(N2CC2)C(=O)C(OC)=C(N2CC2)C1=O , what call appears in the results of this test?
Y

Which outcome was assigned to CC[C@H]1CN2CCc3cc(OC)c(OC)cc3[C@@H]2C[C@@H]1C[C@H]1NCCc2cc(OC)c(OC)cc21 in this test?
Y

Here is the next item to consider.
For O=C1C(N2CCN(CCO)CC2)=C(N2CC2)C(=O)C(N2CCN(CCO)CC2)=C1N1CC1 , which call appears in the assay record?
N

---

Tested on: BDF1 mice, P388 leukemia ip, median survival T/C
METHOD SUMMARY: NCI In Vivo Anticancer Drug Screen. Data for tumor model P388 Leukemia (intraperitoneal) in B6D2F1 (BDF1) mice
CONDITION DESCRIPTION: endpoint: median survival time; dose: 12.5 mg/kg/injection; schedule: Q04DX003 (ip); vehicle: Klucel (hydroxypropylcellulose) (HPC)
Inconclusive results and toxic doses are left out. The calls were made as follows: active = survival T/C of 150% or more; inactive = T/C below 125% in these data.
In this exercise, the only acceptable responses are label 1 for active, label 0 for inactive

What is the recorded call for this compound in the test? Oc1ccccc1C=NCCN1CC1.Oc1ccccc1C=NCCN1CC1.[Ni+2]
label 0

Outcome? CCOC(=O)Cc1c[nH]c2ccc(N(CCCl)CCCl)cc12
label 1

# outcome recorded in this test, key = C/C(=N/NC(=O)c1ccccc1)c1ccc(Cl)cc1Cl
label 0

Proceed to the following item.
// return assay outcome for Nc1ccccc1SC1CC(=O)N(c2ccc(I)cc2)C1=O (stereo not drawn)
label 0

---

System: BDF1 mice, P388 leukemia ip, median survival T/C
METHOD SUMMARY: NCI In Vivo Anticancer Drug Screen. Data for tumor model P388 Leukemia (intraperitoneal) in B6D2F1 (BDF1) mice
CONDITION DESCRIPTION: endpoint: median survival time; dose: 100.0 mg/kg/injection; schedule: Q04DX003 (ip); vehicle: saline with Tween-80; higher = longer survival
Toxic doses and inconclusive results are not listed.
This listing pairs compounds with measured T/C.

Below, 10 compounds whose answers are already recorded.
Which value of T/C has been reported for COC(=O)C(CSCSC)NC(=O)NC1CCCCC1 (stereo unspecified) in the records?
95 % of control

Entry CC(Cc1ccccc1)C(N)=O (stereo unspecified) has what T/C?
98 % of control

Can you look up the measured T/C of Nc1nc(C=O)c(Cc2ccc(Br)cc2)c(=O)[nH]1 for me?
113 % of control

If you can, please state the reported T/C value of c1ccc(CCSc2ccccc2)cc1 .
113 % of control

May I ask what T/C has been recorded for C[N-]N(C)C(=O)[S-].C[N-]N(C)C(=O)[S-].C[N-]N(C)C(=O)[S-].[Co] ?
105 % of control

T/C for Nc1nc(SCCc2ccccc2)c2[nH]cnc2n1 ?
104 % of control

T/C for COc1ccc(CCNC(=O)Cc2ccc(OC)c(OC)c2)cc1OC ?
100 % of control

Which measured T/C value corresponds to Cc1ccc(NS(=O)(=O)c2ccccc2)cc1 ?
100 % of control

Could you tell me which T/C is on file for OC(Cc1ccnc2ccccc12)C(Cl)(Cl)Cl (stereo unspecified) ?
100 % of control

Value lookup for T/C; key = CCOC(=O)C(=O)C1CCCC1=O (stereo unspecified)
95 % of control

Others:
Could you tell me which T/C is on file for CC(C)CCCBr ?
108 % of control

Any idea what T/C was measured for CC(=O)[C@H]1CC[C@H]2[C@@H]3C[C@H](C)C4=CC(=O)CC[C@]4(C)[C@H]3C(=O)C[C@]12C ?
103 % of control

---

Tested on: BDF1 mice, P388 leukemia ip, median survival T/C
METHOD SUMMARY: NCI In Vivo Anticancer Drug Screen. Data for tumor model P388 Leukemia (intraperitoneal) in B6D2F1 (BDF1) mice
CONDITION DESCRIPTION: endpoint: median survival time; dose: 50.0 mg/kg/injection; schedule: Q04DX003 (ip); vehicle: saline; higher = longer survival
Inconclusive results and toxic doses are left out.
Listed next: entries and their corresponding T/C.

Answered cases to consult:
Which measured T/C belongs to COc1cccc(NN)c1 , tested on BDF1 mice, P388 leukemia ip, median survival T/C?
100 % of control

Request: T/C, test system BDF1 mice, P388 leukemia ip, median survival T/C, entry Cc1[nH]c(=O)[nH]c(=O)c1/C=C/C(=O)NC(CO)CC(C)C (stereo not drawn)
100 % of control

Now look at this one.
Fill in the recorded T/C for this molecule, with BDF1 mice, P388 leukemia ip, median survival T/C as test system: Cc1cc(Cl)c2ccccc2[n+]1C
88 % of control

---

Test system: BDF1 mice, P388 leukemia ip, median survival T/C
METHOD SUMMARY: NCI In Vivo Anticancer Drug Screen. Data for tumor model P388 Leukemia (intraperitoneal) in B6D2F1 (BDF1) mice
CONDITION DESCRIPTION: endpoint: median survival time; dose: 100.0 mg/kg/injection; schedule: Q01DX005 (ip); vehicle: saline with Tween-80; higher = longer survival
Toxic doses and inconclusive results are not listed.
PARAMETER: T/C

Check out these entries, answers already filled in.
Sample Cc1cc(-c2ccc(NC(=O)c3cccc([N+](=O)[O-])c3)c(C)c2)ccc1NC(=O)c1cccc([N+](=O)[O-])c1 — what was its T/C?
94 % of control

Any idea what T/C was measured for CC(C)(C)OC(=O)NCC(=O)NC(Cc1c[nH]c2ccccc12)C(=O)O (configuration not stated) ?
95 % of control

Fill in: T/C of COC(=O)CCCCI is ___
110 % of control

Quick check: T/C of Cc1nc2ccccc2c(=O)n1-c1nccs1 ?
107 % of control

Bench note: what T/C did CCNC(=O)OCc1cnc(C)c(OC(=O)NCC)c1COC(=O)NCC show?
100 % of control

---
Record request: T/C value, item COc1ccc2c(c1OC)C(=O)OC2(O)C1=NCCc2cc3c(cc21)OCO3 (configuration not stated)
98 % of control

Which T/C value belongs to Cc1sc2c(c1-c1ccccc1)C(=O)CCCN2 ?
118 % of control

---

Tested on: BDF1 mice, P388 leukemia ip, median survival T/C
METHOD SUMMARY: NCI In Vivo Anticancer Drug Screen. Data for tumor model P388 Leukemia (intraperitoneal) in B6D2F1 (BDF1) mice
CONDITION DESCRIPTION: endpoint: median survival time; dose: 200.0 mg/kg/injection; schedule: Q01DX009 (ip); vehicle: saline with Tween-80; higher = longer survival
Toxic doses and inconclusive results are not listed.
Form field: T/C (one value per entry).

Solved cases (10 shown):
So what does the record say about T/C for CC(=O)NC(C(=O)N/N=C(\C)c1ccccc1)C(=O)N/N=C(\C)c1ccccc1 ?
89 % of control

For the compound shown here, O=CNNC(=O)c1ccccn1 , give the reported T/C.
96 % of control

# lookup: T/C of CN(C)c1ccc(/C=C\c2ccnc3ccc(-c4ccccc4)cc23)cc1
94 % of control

T/C lookup needed for Nc1ncncc1-c1cccc2ccccc12 , thanks.
108 % of control

For the compound COc1ccc(/C(=C\S(C)=O)c2cccs2)cc1 (configuration not stated) , what T/C is on record?
100 % of control

What does the record list as T/C for CCOCc1c(COc2ccc(OC)cc2)n(CC#CCOc2ccc(OC)cc2)c2ccc(Br)cc12 ?
98 % of control

Which T/C is listed for Nc1ncnc2c1ncn2C1CCCO1 (configuration not stated) ?
109 % of control

Report T/C for COc1ccc(C(C)=O)cc1CO/N=C1\CSCc2ccccc21 please.
108 % of control

Sample O=[N+]([O-])c1ccc(NCCO)c([N+](=O)[O-])c1 — what was its T/C?
113 % of control

Quick one: T/C for O=C1C(CCO)SC(=S)N1c1ccccc1 (configuration not stated) ?
102 % of control

New cases:
Using the record for NC(=O)CN1C(=O)c2ccccc2C1=O , report its T/C.
90 % of control

Quick one: T/C for Cc1ccc(S(=O)(=O)/N=C/NN(C)C)cc1 ?
98 % of control

---

Tested on: BDF1 mice, P388 leukemia ip, median survival T/C
METHOD SUMMARY: NCI In Vivo Anticancer Drug Screen. Data for tumor model P388 Leukemia (intraperitoneal) in B6D2F1 (BDF1) mice
CONDITION DESCRIPTION: endpoint: median survival time; dose: 400.0 mg/kg/injection; schedule: Q04DX003 (ip); vehicle: Klucel (hydroxypropylcellulose) (HPC); higher = longer survival
Inconclusive results and toxic doses are left out.
PARAMETER: T/C

Take a look at these entries with their results.
Fill blank: measured T/C of the compound CCOC(=O)C1(C)C(=O)CC2c3nc4ccccc4cc3CN2C1=O (stereo not drawn) is ____.
100 % of control

State the recorded T/C for this entry: CC(=O)OC1CCC2(C)C(CCC3(C)C2CC=C2C4C(C)C(C)CCC4(C)CCC23C)C1(C)C (stereo not drawn)
90 % of control

Any idea what its T/C is? The compound is CC(=O)Nc1ccc(Cl)cc1C(=O)O
100 % of control

Field request: T/C | item: CC1(C)C2CC3C(C(=O)O)CCCC3(C2)C1Br (stereo not drawn)
95 % of control

Which measured T/C value corresponds to O/N=C(\c1ccccc1)C(c1ccccc1)C(Cl)(Cl)Cl (stereo not drawn) ?
100 % of control

Look at this compound and give its reported T/C. CC(Oc1cc(Cl)ccc1Cl)C(=O)O (stereo not drawn)
108 % of control

Which T/C value is on record for CCN(CC)c1ccc(/C=C/c2ccncc2)cc1 ?
109 % of control

Look up T/C for this compound: COc1cc(NS(=O)(=O)c2ccccc2)ccc1C
95 % of control

# query: T/C of entry O=[N+]([O-])c1ccc2c3c(cccc13)-c1ccccc1-2
100 % of control

Please give the measured T/C for this compound: O=[N+]([O-])c1ccc(C(Br)C(Br)c2ccccc2Cl)cc1 (stereo not drawn)
100 % of control

Next:
Query (compound): COC(=O)c1ccc(C(=O)OC)c(=O)[nH]1 ; field requested: T/C
104 % of control

Given the entry OCC(F)(F)C(F)(F)C(F)(F)C(F)F , report its measured T/C.
90 % of control

Request the reported T/C associated with C/C(N=Nc1ccccc1)=N\Nc1cccc(C(F)(F)F)c1
108 % of control

Reported T/C, compound CCN(CC)c1cc(Cl)c(C=O)cc1Br : ____
100 % of control

// T/C lookup, key: S
100 % of control

Need T/C, item CC(=O)O[C@H]1CC[C@H]2[C@@H]3CC[C@H]4CC=C(C#N)C[C@]4(C)[C@H]3CC[C@]12C
86 % of control

What does the data say about its T/C? Entry: Nc1ccccc1SC1CC(=O)N(c2ccccc2)C1=O (stereo not drawn)
95 % of control

Please look up its T/C: C[C@]12CCC(=O)C=C1CC[C@H]1[C@@H]3CC[C@](O)(C(=O)CO)[C@@]3(C)C[C@H](O)[C@@]12F
90 % of control

Please give the measured T/C for this compound: c1ccc2c(c1)CCc1cc3c(nc1-2)-c1ccccc1CC3
112 % of control

So what does the record say about T/C for O=C(O)c1ccc(SSc2ccc(C(=O)O)cn2)nc1 ?
100 % of control
